B1: TPR t1 (parent)
chain: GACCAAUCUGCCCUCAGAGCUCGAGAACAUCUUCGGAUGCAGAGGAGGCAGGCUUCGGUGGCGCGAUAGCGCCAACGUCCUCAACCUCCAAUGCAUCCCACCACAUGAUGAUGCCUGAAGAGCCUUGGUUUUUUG

- Variants of: B1
- ASSAY NAME: polymerase ribozyme fitness, log enrichment relative to wild type (log ratio); higher = more active; in vitro selection for triplet polymerase activity
Classify as follows. Reported polymerase ribozyme fitness (log ratio) greater than or equal to -3: True. Reported polymerase ribozyme fitness (log ratio) below: False.

1) C8U U55G G113C :: True
2) C28G C53U G93A :: False
3) G25A C64U :: False
4) A6U G51U C70U C80U G93U :: False
5) G44U C97G G113A :: False
6) C3A C11U C49G C53A G60A C101A :: False
7) U38G U92A U109G C114A G122U :: False
8) A5U C97G C115U G127A :: False
9) A2U C13A C28U U112G :: False
10) U54C C56U C82A U96A :: True
11) A5C G63C C114U :: True
